- Measurement target: UniProt:P48039
- Assay method text: Intrinsic activity at human MT1 receptor transfected in CHO cell membranes after 1 hr by [35S]GTPgammaS binding assay
- Assay type: functional
Please assign a class to every record based on measured Emax, with ranges bin 0: < 40%; bin 1: ≥ 40% and < 70%; bin 2: ≥ 70%

Q: Please report the category associated with CCNC(=S)NCC1CCc2ccccc2N1C (racemic) , nothing else.
Ans: bin 2

Q: Please report the category associated with CC(=O)NCC1CCc2ccccc2N1Cc1ccccc1 (racemic) , nothing else.
Ans: bin 0

Q: Please report the category associated with CCNC(=O)NCC1CCc2ccccc2N1 (racemic) , nothing else.
Ans: bin 0

Q: Please report the category associated with CCNC(=O)NCC1CCc2c(OC)cccc2N1C (racemic) , nothing else.
Ans: bin 2

Q: Please report the category associated with CCNC(=O)NCC1CCc2c(OC)cccc2N1Cc1ccccc1 (racemic) , nothing else.
Ans: bin 1

Continuing:
Q: Please report the category associated with CCC(=O)NCC1CCc2ccccc2N1 (racemic) , nothing else.
Ans: bin 0

Q: Please report the category associated with CCC(=O)NCC1CCc2ccccc2N1Cc1ccccc1 (racemic) , nothing else.
Ans: bin 1

Q: Please report the category associated with CCC(=O)NCC1CCc2c(OC)cccc2N1C (racemic) , nothing else.
Ans: bin 2

Q: Please report the category associated with CCC(=O)NCC1CCc2c(OC)cccc2N1Cc1ccccc1 (racemic) , nothing else.
Ans: bin 2

Q: Please report the category associated with "CC(=O)NC[C@H]1CCc2ccccc2N1Cc1ccccc1" , nothing else.
Ans: bin 1

Q: Please report the category associated with CCNC(=S)NCC1CCc2ccccc2N1 (racemic) , nothing else.
Ans: bin 0

====

- Measurement target: Melatonin receptor type 1A (Homo sapiens, UniProt P48039)
- Sequence (P48039 whole entry): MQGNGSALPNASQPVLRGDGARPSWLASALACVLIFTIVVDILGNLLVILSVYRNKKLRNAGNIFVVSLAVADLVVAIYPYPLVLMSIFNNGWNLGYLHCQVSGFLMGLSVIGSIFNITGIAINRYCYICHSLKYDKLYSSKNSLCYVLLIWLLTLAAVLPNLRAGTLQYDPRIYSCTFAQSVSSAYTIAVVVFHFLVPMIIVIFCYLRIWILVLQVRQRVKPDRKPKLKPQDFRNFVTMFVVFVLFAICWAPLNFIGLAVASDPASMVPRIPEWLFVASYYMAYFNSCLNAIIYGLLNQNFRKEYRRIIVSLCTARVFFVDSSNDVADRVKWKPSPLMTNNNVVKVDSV
- Assay method text: Intrinsic activity at human MT1 receptor transfected in CHO cell membranes after 1 hr by [35S]GTPgammaS binding assay
Catalogue of pEC50 values
Schema: pEC50 number; meaning minus log10 of the concentration expressed in molar units.

Known pEC50 results, listed for orientation:
Q: Provide one value: measured pEC50 of CCNC(=O)NCC1CCc2ccccc2N1C (racemic)
Ans: 6.96

Q: Provide one value: measured pEC50 of CCC(=O)NCC1CCc2c(OC)cccc2N1Cc1ccccc1 (racemic)
Ans: 6.75

Q: Provide one value: measured pEC50 of CCC(=O)NCC1CCc2ccccc2N1Cc1ccccc1 (racemic)
Ans: 7.44

Continuing:
Q: Provide one value: measured pEC50 of CCC(=O)NCC1CCc2ccccc2N1 (racemic)
Ans: 6.62

Q: Provide one value: measured pEC50 of CCNC(=S)NCC1CCc2ccccc2N1 (racemic)
Ans: 5.58

Q: Provide one value: measured pEC50 of CCC(=O)NCC1CCc2ccccc2N1C (racemic)
Ans: 9.05

Q: Provide one value: measured pEC50 of CCC(=O)NCC1CCc2c(cccc2OC)N1 (racemic)
Ans: 6.04

Q: Provide one value: measured pEC50 of CCC(=O)NCC1CCc2ccccc2N1c1ccccc1 (racemic)
Ans: 8.21

Q: Provide one value: measured pEC50 of CCNC(=S)NCC1CCc2ccccc2N1C (racemic)
Ans: 6.09

Q: Provide one value: measured pEC50 of "CC(=O)NC[C@H]1CCc2ccccc2N1Cc1ccccc1"
Ans: 6.72

====

- Measurement target: UniProtKB P48039
- Assay method text: Displacement of 2-[125I]-Iodomelatonin from human MT1 receptor transfected in CHO cell membranes after 120 mins
Catalogue of pKi values
Schema: pKi number; meaning minus log10 of the concentration expressed in molar units.

Known pKi results, listed for orientation:
Q: Provide one value: measured pKi of "CC(=O)NC[C@@H]1CCc2ccccc2N1Cc1ccccc1"
Ans: 6.91

Q: Provide one value: measured pKi of CCCN1c2ccccc2CCC1CNC(C)=O (racemic)
Ans: 8.24

Q: Provide one value: measured pKi of CCNC(=O)NCC1CCc2ccccc2N1 (racemic)
Ans: 6.94

Q: Provide one value: measured pKi of CCC(=O)NCC1CCc2ccc(OC)cc2N1Cc1ccccc1 (racemic)
Ans: 6.67

# ---- query compound ----
Q: Provide one value: measured pKi of "CC(=O)NC[C@H]1CCc2ccccc2N1Cc1ccccc1"
Ans: 7.35

====

Catalogue of log10 EC50 values
- Measurement target: Melatonin receptor type 1A (Homo sapiens)
- Assay method text: Intrinsic activity at human MT1 receptor transfected in CHO cell membranes after 1 hr by [35S]GTPgammaS binding assay
Quick note: numbers are log10 of EC50, with nM as the unit.

Known log10 EC50 results, listed for orientation:
Q: Provide one value: measured log10 EC50 of CC(=O)NCC1CCc2ccccc2N1Cc1ccccc1 (racemic)
Ans: 1.49

Q: Provide one value: measured log10 EC50 of CCCN1c2ccccc2CCC1CNC(C)=O (racemic)
Ans: 0.30

Q: Provide one value: measured log10 EC50 of CCNC(=O)NCC1CCc2c(OC)cccc2N1C (racemic)
Ans: 2.20

Continuing:
Q: Provide one value: measured log10 EC50 of CCNC(=O)NCC1CCc2ccccc2N1 (racemic)
Ans: 3.38

Q: Provide one value: measured log10 EC50 of CCC(=O)NCC1CCc2c(OC)cccc2N1C (racemic)
Ans: 0.23

Q: Provide one value: measured log10 EC50 of CCNC(=O)NCC1CCc2c(OC)cccc2N1Cc1ccccc1 (racemic)
Ans: 2.59

====

Catalogue of Emax values
- Measurement target: Melatonin receptor type 1A (Homo sapiens, UniProt P48039)
- Assay method text: Intrinsic activity at human MT1 receptor transfected in CHO cell membranes after 1 hr by [35S]GTPgammaS binding assay
- Type: functional

Q: Provide one value: measured Emax of CCC(=O)NCC1CCc2ccccc2N1c1ccccc1 (racemic)
Ans: 69%

Q: Provide one value: measured Emax of CCNC(=O)NCC1CCc2ccccc2N1C (racemic)
Ans: 69%

Q: Provide one value: measured Emax of CCCN1c2ccccc2CCC1CNC(C)=O (racemic)
Ans: 39%

Q: Provide one value: measured Emax of CCC(=O)NCC1CCc2c(cccc2OC)N1 (racemic)
Ans: 70%

# ---- query compound ----
Q: Provide one value: measured Emax of CCC(=O)NCC1CCc2ccccc2N1C (racemic)
Ans: 69%
